Sourced from the METLIN SMRT retention time set (Domingo-Almenara et al. 2019)

Assay: gradient 5% acetonitrile 3 min, to 50% in 2 min, to 85% in 15 min, held 3 min, 100 µL/min
Settings: column: Zorbax Extend-C18 2.1 x 50 mm; eluents: water / acetonitrile, 0.1% formic acid
Threshold check on RP-LC retention time: strictly below 1000 s is class 1; on or above 1000 s is class 0.

Cc1ccc(C)c(-c2coc(-c3ccc(NC(=O)c4sccc4C)cc3)n2)c1; class 0
Cc1ccc2[nH]cc(CCNC(=O)c3sc4ncccc4c3-n3cccc3)c2c1; class 0
O=C(Nc1ccc2c(c1)CCC2)C1CCN(C(=O)c2ncn3c2COC(c2ccc(F)cc2)C3)CC1 (stereo not given); class 1
CC(C)CCNC(=O)C12CCCC=C1N(c1ccccc1)C(=O)CC2 (stereo not given); class 1

Now examine the next entry.
A record lists `O=S(=O)(c1cccc(-c2cn3cc(Cl)ccc3n2)c1)N1CCCC1` . Is its RP-LC retention time below 1000 s?
class 1
